tested on: HCC-2998 colon; experiment: NCI tumour cell line growth inhibition, 48 h
Measured TGI accompanies every entry in the list below.
OUTCOME_MEASURE: TGI

1. NC(CCCCNC(=O)OCc1ccccc1)C(=O)NC(CCCCNC(=O)OCc1ccccc1)C(=O)ON1C(=O)CCC1=O (stereo unspecified)
> 100 µM
2. COc1cc2ccnc3c2c(c1O)N(C)C=C3
48.2 µM
3. COc1ccc2c(c1)CCc1c-2n(CCN(C)C)c2ccc(OC)cc12
> 100 µM
4. OCCN=C1Nc2ccc(Cl)cc2C(=S)N2CSC[C@@H]12
> 100 µM
5. CCOC(=O)C1=C(C)NC(=S)NC1c1cccc(O)c1 (stereo unspecified)
> 90.4 µM
6. O=C(C(O)c1cn(Cc2ccccc2)c2ccccc12)N1CCCCC1 (stereo unspecified)
> 100 µM
7. Cc1cc2c(CC(=O)O)[nH]nc2c(C(=O)O)c1C
> 100 µM
8. O=C1NC(N/N=C\c2ccccc2)=N/C1=C/c1ccc(Cl)cc1
36.9 µM
9. CCCCC#COP(=O)(OCC)OCC
> 100 µM
10. N#CCCc1nc2ccc(Br)cc2c(=O)n1CCO
> 100 µM
11. O=C(NNC(=S)Nc1ccccc1)c1csc(NC(=S)NC2CCCCC2)n1
> 100 µM
